# target_desc: Autotaxin (ENPP2, NPP2) (Homo sapiens, UniProt Q13822 Q13822:36-863)
# method_description: inhibition; NPP2 assay, pNP-TMP substrate, solution A (Ca, Mg), 37 C
pIC50: −log10 of the molar value.
outcome_measure: pIC50

INSERT INTO results (binder, number) VALUES
  ('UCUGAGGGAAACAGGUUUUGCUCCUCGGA (mixed, dT1; 2''-deoxy G8,G14,G15; 2''-OMe G4,A5,G6,G7,A9,A11,A13,G20,G27,G28,A29; 2''-OH A10; other pyrimidines 2''-F; 5'' 80 kDa PEG (GL2-800GS2)-ssH linker; 3'' idT) [SEQ 16(52)]', 8.03),
  ('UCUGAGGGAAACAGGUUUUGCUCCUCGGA (mixed, dT1; 2''-deoxy G8,G14,G15,C23,C26; 2''-OMe G4,A5,G6,G7,A9,A11,A13,U17,G20,G27,G28,A29; 2''-OH A10 with PS; other pyrimidines 2''-F; 5'' and 3'' idT) [SEQ 16(61)]', 7.64),
  ('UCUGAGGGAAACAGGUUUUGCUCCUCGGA (mixed, dT1; 2''-deoxy G8,G14,G15,C23,C26; 2''-OMe G4,A5,G6,G7,A9,A11,A13,U19,G20,G27,G28,A29; 2''-OH A10 with PS; other pyrimidines 2''-F; 5'' and 3'' idT) [SEQ 16(60)]', 7.64),
  ('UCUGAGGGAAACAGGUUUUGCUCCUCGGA (mixed, dT1; 2''-deoxy G8,G14,G15,C23,C26; 2''-OMe C2,U3,G4,A5,G6,G7,A9,A11,A13,G20,C21,U22,C24,U25,G27,G28,A29; 2''-OH A10 with PS; other pyrimidines 2''-F; 5'' 80 kDa PEG (GL2-800GS2)-ssH linker; 3'' idT) [SEQ 16(67)]', 9.22);

Reference source for all entries: patent US20170044545
